Attribution: PubChem BioAssay

# Assay Name: probe aNog binding to arrayed compounds – biochemical, biotinylated probe, 635/667 nm fluorescence, primary screen (AID 1115);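 further: probe is biotinylated aNog protein used at 0.15 µg/mL for 1 h at 4 C; z-score combines 667 nm fluorescence of each spot with its signal to noise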
# Test Context: small-molecule microarray, higher = more signal
Quick rule: composite z-score of at least 0.5 means Met, below that means Not met.

Compound | Qualitative Label
O=C1O[C@@H](c2ccccc2)[C@@H](c2ccccc2)N2[C@@H](c3ccc(O)cc3)[C@]3(C(=O)Nc4ccccc43)[C@@H](C(=O)N3CCCCCCC3)[C@H]12 | Not met
[N-]=[N+]=NCc1ccccc1[C@@H]1OC(c2ccc(OCCCO)cc2)=N[C@]1(Cc1ccccc1)C(=O)O | Not met
[N-]=[N+]=NCc1ccccc1[C@H]1OC(c2ccc(OCCCO)cc2)=N[C@@]1(Cc1ccccc1)C(=O)NCC(O)CO (stereo not given in full) | Met
COc1ccc(CCNC(=O)[C@@]2(C)c3ccccc3C(=O)N(Cc3ccccc3)[C@H]2c2ccc(CO)cc2)cc1 | Not met
C=CCNC(=O)[C@@H]1[C@H]2C(=O)O[C@H](c3ccccc3)[C@H](c3ccccc3)N2[C@H](c2ccccc2OCCO)[C@@]12C(=O)N(C(=O)OCCOC)c1ccc(C#CCC(C(=O)OC)C(=O)OC)cc12 | Met
COc1ccc([Si](C)(C)[C@@H]2[C@@H](CCO)O[C@]3(C(=O)N(Cc4cccc(N5CCCCC5=O)c4)c4ccccc43)[C@H]2C)cc1 | Not met
Cc1ccc(S[C@]2(C(=O)NCC(C)C)CC(=O)N(Cc3ccccc3)[C@@H]2c2ccc(CO)cc2)cc1 | Met
O=C(NCCN1CCOCC1)[C@@H]1c2ccccc2C(=O)N(Cc2cc(F)cc(C(F)(F)F)c2)[C@H]1c1ccc(CO)cc1 | Not met
CCCCN1CC=CC23O[C@@H]4C=CCCOC(=O)C4[C@H]2C(=O)N(CCCO)[C@@H]3C1=O (stereo not given in full) | Not met
COC(=O)[C@@]1(Cc2ccc(F)cc2)[C@H]2c3cc(C(=O)N(C)C)n(CCc4c[nH]c5ccc(OC)cc45)c3C[C@H]2CN1C(=O)c1ccccc1 | Met
COC(=O)[C@@]1(Cc2ccc(F)cc2)[C@H]2c3cc(C(=O)N(C)C)n(CCCNc4ccc(C(F)(F)F)cc4Cl)c3C[C@H]2CN1C(=O)c1ccccc1 | Met
CN1C(=O)C2C=CC(C(O)C=Cc3ccc([N+](=O)[O-])cc3)N(N3CCCCC3)C2C1=O (stereo not given) | Met
NC(=O)[C@@]1(CCS(=O)(=O)c2ccccc2)N=C(c2ccc(OCCCO)cc2)O[C@H]1c1ccccc1 | Met
CCOC(=O)C1=CC[C@@H](c2ccccc2)N(S(=O)(=O)c2ccc(C)cc2)[C@H]1c1ccc(C#N)cc1 | Met
COCC1C2CC[C@H]3C(OCc4ccc(F)cc4C(F)(F)F)OC[C@]4(C)[C@H]3C2=C(CN4C(=O)OC(C)(C)C)[C@H](C)C1COC (stereo not given in full) | Met
O=C1C2C=CC(C(O)c3ccc(-c4ccccc4)s3)N(Nc3ccccc3F)C2C(=O)N1c1ccccc1 (stereo not given) | Not met
Oc1ccc2cc[n+](Cc3cccc(OC(F)(F)F)c3)cc2c1 | Not met
C=CC[C@@]1(C(=O)OC)N=C(c2ccc(OCCCO)cc2)O[C@@H]1c1ccccc1CN=[N+]=[N-] | Not met
CN(C)CCCCCCNC(=O)[C@@H]1C[C@@H]2C(=O)N[C@@H](Cc3ccccc3)C(=O)N2[C@@H]1c1cccc(OCCO)c1 | Not met
Cc1ccc(N2C(=O)c3ccccc3[C@@H](C(=O)NCC(C)C)[C@@H]2c2ccc(CO)cc2)nc1 | Not met
CC(C)(C)OC(=O)CC[C@]1(C(=O)NCC(O)CO)N=C(c2ccc(OCCCO)cc2)O[C@H]1c1ccccc1CN=[N+]=[N-] (stereo not given in full) | Not met
COCCCNC(=O)[C@@]1(C)c2ccccc2C(=O)N(Cc2ccccc2)[C@H]1c1ccc(CO)cc1 | Not met
Cc1ccccc1/C=C/C=O | Not met
C=CC[C@]1(C(=O)O)N=C(c2ccc(OCCCO)cc2)O[C@H]1c1ccccc1CN=[N+]=[N-] | Not met
